# EXPERIMENTAL TARGET: Alpha-galactosidase A (Homo sapiens) (UniProt P06280)
# Sequence (P06280 whole entry, looked up): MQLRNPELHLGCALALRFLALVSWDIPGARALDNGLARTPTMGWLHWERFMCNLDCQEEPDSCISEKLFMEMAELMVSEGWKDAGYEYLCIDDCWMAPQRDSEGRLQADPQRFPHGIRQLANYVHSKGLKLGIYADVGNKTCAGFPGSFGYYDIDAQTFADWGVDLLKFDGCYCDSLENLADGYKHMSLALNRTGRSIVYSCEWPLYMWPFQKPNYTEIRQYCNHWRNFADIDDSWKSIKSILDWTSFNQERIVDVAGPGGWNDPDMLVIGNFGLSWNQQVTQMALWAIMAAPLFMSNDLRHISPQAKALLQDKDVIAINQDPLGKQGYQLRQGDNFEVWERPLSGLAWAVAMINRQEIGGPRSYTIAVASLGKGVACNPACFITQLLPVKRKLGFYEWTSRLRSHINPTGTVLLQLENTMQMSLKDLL
# PROCEDURE DETAILS: Counterscreen for Glucocerebrosidase Inhibitors: qHTS Assay for Human alpha-Galactosidase at pH 4.5 (AID 992)
# TEST SETTINGS: purified enzyme, fluorogenic substrate; series mostly up to 76.9 µM
Calls of active or inactive are those of the source. Calls follow the shape of the dose curve; as a rule, active = well fitted curve in the direction sought with a large enough effect; inactive = no such curve, though single readings can be large or run the other way.
OBSERVED PROPERTY: outcome

compound=C[C@@H]1O[C@H](C[N+](C)(C)C)C[C@H]1O measured=inactive
compound=CC1=NN=C(c2ccc(N)cc2)c2cc3c(cc2C1)OCO3 measured=inactive
compound=Cc1nccc2c1[nH]c1ccccc12 measured=inactive
compound=CCCN1CCC[C@H](c2cccc(O)c2)C1 measured=inactive
compound=NCCc1c[nH]c2ccccc12 measured=inactive

get_value(item= `CCCN1CCO[C@@H]2c3cc(O)ccc3OC[C@H]21` , readout=outcome) returns inactive

get_value(item= `CC(C)Oc1cccnc1N(C)C1CCN(Cc2ccccc2)CC1` , readout=outcome) returns inactive

get_value(item= NC(N)=NOCCC(N)C(=O)O (stereo not given) , readout=outcome) returns inactive

get_value(item= `C#CCOC(=O)C1=CCCN(C)C1` , readout=outcome) returns inactive

get_value(item= `Cc1nc(-c2ccc(-c3ccc(C(=O)N4CCc5cc6c(cc54)C4(CCN(C)CC4)CO6)cc3)c(C)c2)no1` , readout=outcome) returns inactive
